test_description: Compound cytotoxicity measured by an ATP content assay as a counter-screen for lead compounds in human astrocytoma cell line (SNB-19)
assay_context: SNB-19 astrocytoma viability, ATP luminescence; series mostly up to 46.1 µM
Records with an inconclusive call do not appear. Activity calls are given as the source filed them. Calls come from the whole dose curve; as a rule, active = well fitted cell-killing curve with a large enough effect; inconclusive = small, poorly fitted or top-dose-only effect, or effect the other way; inactive = flat fitted curve, though single readings scatter.
Labels: Y (active), N (inactive)

1. O=S(=O)(O)CCSSCCS(=O)(=O)O | N
2. Oc1ccc(/C=C/c2cc(O)cc(O)c2)cc1 | Y
3. COc1cc2nc(-c3ccc(N4CCN(C)CC4)cc3)nc(NCCN3CCOCC3)c2cc1OC | N
4. O=C(Nc1ncc([N+](=O)[O-])s1)c1cccs1 | N
5. O=C(Nc1ccc(C(=O)O)c(O)c1)c1ccccc1 | N
6. Nc1ccc(N=Nc2ccccc2)c(N)n1 | N
7. CC(=NNC(=S)N1CCC1)c1ccccn1 | N
8. O=C1NC(=O)C(=Cc2ccc(-c3ccc(F)cc3)o2)S1 | N
9. O=C(Nc1cc2cc[nH]c2cn1)c1ccccc1 | Y
10. CC1(C)OC2=C(C(=O)c3ccccc3C2=O)[C@H](NCc2ccccc2)[C@H]1O | Y
11. COc1cc2nc(N3CCN(C(=O)C4CCCO4)CC3)nc(N)c2cc1OC (centres undefined) | N
12. CN1CC(=O)N2C(Cc3c([nH]c4ccccc34)[C@H]2c2ccc3c(c2)OCO3)C1=O (some centres undefined) | N
13. Cc1ccc(O)c(N=Nc2ccccc2)n1 | Y
14. CC1(C)Cc2c(sc(NC(=S)NC(=O)c3ccccc3)c2C(=O)O)CO1 | N
15. O=C(O)CCC(=O)c1ccc(-c2ccccc2)cc1 | N
16. O=C(O)c1ccccc1Nc1cccc(C(F)(F)F)c1 | N
17. CC(C(=O)O)c1ccc2c(c1)[nH]c1ccc(Cl)cc12 (centres undefined) | N
18. CC(=C(CCOC(=O)C(C)C)SSC(CCOC(=O)C(C)C)=C(C)N(C=O)Cc1cnc(C)nc1N)N(C=O)Cc1cnc(C)nc1N | N
19. O=C(O)c1cc([N+](=O)[O-])ccc1NCCCc1ccccc1 | N
20. COc1ccc(-c2cc(=O)c3c(O)cc(O)cc3o2)cc1O | N
21. COc1cc(NC(C)CCCN)c2ncccc2c1 (centres undefined) | N
22. Cc1ccc(O)c(-n2nc3ccccc3n2)c1 | N
23. CCN1/C(=C/C=C/c2sc3ccccc3[n+]2CC)Sc2ccccc21 | N
24. O=C1c2ccccc2C(=O)c2c1ccc(O)c2O | N

###

test_description: Compound cytotoxicity measured by an ATP content assay as a counter-screen for lead compounds in human astrocytoma cell line (SNB-19)
assay_context: SNB-19 astrocytoma viability, ATP luminescence; series mostly up to 46.1 µM
Records with an inconclusive call do not appear. Activity calls are given as the source filed them. Calls come from the whole dose curve; as a rule, active = well fitted cell-killing curve with a large enough effect; inconclusive = small, poorly fitted or top-dose-only effect, or effect the other way; inactive = flat fitted curve, though single readings scatter.
Labels: label 1 = active, label 0 = inactive

1. O=C(O)c1ccccc1NCCc1ccccc1 | label 0
2. CN1CC(=O)N/C1=N/C(=O)Nc1cccc(Cl)c1 | label 0
3. Clc1ccccc1-c1nc(-c2ccncc2)no1 | label 0
4. Cc1oncc1C(=O)Nc1ccc(C(F)(F)F)cc1 | label 0
5. CNC(=O)c1ccccc1Sc1ccc2c(/C=C/c3ccccn3)n[nH]c2c1 | label 1
6. CC(C)(C)OC(=O)CN(Cc1ccc(Cl)cc1)Cc1ccc([N+](=O)[O-])s1 | label 0
